test system: Escherichia coli TOP10; assay: shrunken log2 fold change of peptide-encoding DNA abundance (4.5 h post-induction vs induction); higher = less antimicrobial activity (less host growth inhibition); settings: time post-induction: 4.5 h; library: site-saturation at positions 5, 18, 19, 20
recorded-metric: shrunken log2 fold change

| sequence-entry | study-target | observed-measurement |
| --- | --- | --- |
| RRIRERPPRLPRPRPRPRILPRP | Escherichia coli TOP10 | -0.202 |
| RRIRCRPPRLPRPRPRPIQAPRP | Escherichia coli TOP10 | 0.0936 |
| RRIRLRPPRLPRPRPRPFNTPRP | Escherichia coli TOP10 | 0.724 |
| RRIRHRPPRLPRPRPRPKLLPRP | Escherichia coli TOP10 | -0.0097 |
| RRIRRRPPRLPRPRPRPGSKPRP | Escherichia coli TOP10 | -0.0919 |
| RRIRNRPPRLPRPRPRPYREPRP | Escherichia coli TOP10 | 0.0155 |
| RRIRLRPPRLPRPRPRPEKPPRP | Escherichia coli TOP10 | 0.148 |
| RRIRNRPPRLPRPRPRPSANPRP | Escherichia coli TOP10 | -0.379 |
| RRIRDRPPRLPRPRPRPHRVPRP | Escherichia coli TOP10 | -0.0141 |
| RRIRPRPPRLPRPRPRPYFYPRP | Escherichia coli TOP10 | -0.787 |
| RRIRSRPPRLPRPRPRPKKAPRP | Escherichia coli TOP10 | 0.0943 |
| RRIRCRPPRLPRPRPRPNSRPRP | Escherichia coli TOP10 | -0.175 |
| RRIRSRPPRLPRPRPRPTHLPRP | Escherichia coli TOP10 | 0.135 |
| RRIRTRPPRLPRPRPRPVHSPRP | Escherichia coli TOP10 | -0.0193 |
| RRIRLRPPRLPRPRPRPTLNPRP | Escherichia coli TOP10 | -0.0428 |
| RRIRRRPPRLPRPRPRPDYHPRP | Escherichia coli TOP10 | -0.0959 |
| RRIRPRPPRLPRPRPRPMMPPRP | Escherichia coli TOP10 | -0.141 |
| RRIRQRPPRLPRPRPRPRYFPRP | Escherichia coli TOP10 | -0.247 |
| RRIRWRPPRLPRPRPRPIQPPRP | Escherichia coli TOP10 | 0.0851 |
| RRIRARPPRLPRPRPRPQEEPRP | Escherichia coli TOP10 | 0.0293 |
| RRIRIRPPRLPRPRPRPAHEPRP | Escherichia coli TOP10 | 0.215 |
| RRIRTRPPRLPRPRPRPYKGPRP | Escherichia coli TOP10 | -0.0116 |
| RRIRVRPPRLPRPRPRPYHYPRP | Escherichia coli TOP10 | -1.93 |
| RRIRARPPRLPRPRPRPERDPRP | Escherichia coli TOP10 | 0.613 |
| RRIRNRPPRLPRPRPRPEMTPRP | Escherichia coli TOP10 | -0.059 |
| RRIRKRPPRLPRPRPRPTDKPRP | Escherichia coli TOP10 | 0.208 |
| RRIRTRPPRLPRPRPRPCHCPRP | Escherichia coli TOP10 | -1.43 |
| RRIRMRPPRLPRPRPRPFMCPRP | Escherichia coli TOP10 | -0.171 |
| RRIRSRPPRLPRPRPRPAGNPRP | Escherichia coli TOP10 | -0.0422 |
| RRIRDRPPRLPRPRPRPNAHPRP | Escherichia coli TOP10 | -0.0544 |
| RRIRYRPPRLPRPRPRPIETPRP | Escherichia coli TOP10 | -0.0177 |
| RRIRGRPPRLPRPRPRPYEAPRP | Escherichia coli TOP10 | 0.045 |

###

system: Escherichia coli TOP10; assay: shrunken log2 fold change of peptide-encoding DNA abundance (4.5 h post-induction vs induction); higher = less antimicrobial activity (less host growth inhibition); conditions: time post-induction: 4.5 h; library: site-saturation at positions 5, 18, 19, 20
Rule: shrunken log2 fold change under -0.02 gives 0 (no), otherwise 1 (yes).

| sequence-entry | label-class |
| --- | --- |
| RRIRIRPPRLPRPRPRPEYPPRP | 0 (no) |
| RRIRVRPPRLPRPRPRPHKIPRP | 0 (no) |
| RRIRGRPPRLPRPRPRPGDGPRP | 1 (yes) |
| RRIRDRPPRLPRPRPRPVAGPRP | 1 (yes) |
| RRIRIRPPRLPRPRPRPPNDPRP | 0 (no) |
| RRIRHRPPRLPRPRPRPGWYPRP | 1 (yes) |
| RRIRRRPPRLPRPRPRPPHIPRP | 1 (yes) |
| RRIRCRPPRLPRPRPRPLWDPRP | 0 (no) |
| RRIRWRPPRLPRPRPRPMSLPRP | 0 (no) |
| RRIRKRPPRLPRPRPRPDQDPRP | 1 (yes) |
| RRIRYRPPRLPRPRPRPTCWPRP | 1 (yes) |
| RRIRQRPPRLPRPRPRPSWVPRP | 0 (no) |
| RRIRDRPPRLPRPRPRPAPQPRP | 1 (yes) |
| RRIRIRPPRLPRPRPRPGSAPRP | 1 (yes) |
| RRIRQRPPRLPRPRPRPTVEPRP | 1 (yes) |

###

system: Escherichia coli TOP10; assay: shrunken log2 fold change of peptide-encoding DNA abundance (4.5 h post-induction vs induction); higher = less antimicrobial activity (less host growth inhibition); conditions: time post-induction: 4.5 h; library: site-saturation at positions 5, 18, 19, 20;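 further: peptides expressed intracellularly from a pBAD plasmid library in pooled LB shake-flask culture, induced with 0.3% L-arabinose, DNA abundance read by NGS, three biological replicates, DESeq2 with apeglm shrinkage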

| sequence-entry | shrunken log2 fold change |
| --- | --- |
| RRIRCRPPRLPRPRPRPVWYPRP | -0.184 |
| RRIRKRPPRLPRPRPRPSVLPRP | 0.0575 |
| RRIRVRPPRLPRPRPRPDRKPRP | 0.0279 |
| RRIRNRPPRLPRPRPRPEYYPRP | -0.0216 |
| RRIRFRPPRLPRPRPRPWPLPRP | -0.0977 |
| RRIRQRPPRLPRPRPRPEQCPRP | -0.0442 |
| RRIRWRPPRLPRPRPRPYRVPRP | 0.00439 |
| RRIRARPPRLPRPRPRPLRCPRP | 0.242 |
| RRIRHRPPRLPRPRPRPWDNPRP | 0.0451 |
| RRIRWRPPRLPRPRPRPTGSPRP | 0.123 |
| RRIRRRPPRLPRPRPRPGRGPRP | 0.805 |
| RRIRGRPPRLPRPRPRPLWIPRP | 0.163 |
| RRIRVRPPRLPRPRPRPCIWPRP | 0.0495 |
| RRIRVRPPRLPRPRPRPRFYPRP | 0.112 |
| RRIRFRPPRLPRPRPRPGWQPRP | 0.188 |
| RRIRHRPPRLPRPRPRPHVCPRP | 0.00854 |
| RRIRSRPPRLPRPRPRPDRLPRP | -0.168 |
| RRIRHRPPRLPRPRPRPCGMPRP | -0.0838 |
| RRIRGRPPRLPRPRPRPDWWPRP | 0.937 |
| RRIRIRPPRLPRPRPRPYFGPRP | -0.0455 |
| RRIRTRPPRLPRPRPRPDGCPRP | 0.127 |
| RRIRLRPPRLPRPRPRPGFEPRP | 0.168 |
| RRIRFRPPRLPRPRPRPAEHPRP | 0.26 |
| RRIRGRPPRLPRPRPRPLRDPRP | 1.3 |
| RRIRIRPPRLPRPRPRPSVHPRP | -0.278 |
| RRIRFRPPRLPRPRPRPSQAPRP | -0.0595 |
| RRIRLRPPRLPRPRPRPAEHPRP | 0.141 |
| RRIRYRPPRLPRPRPRPIQMPRP | -0.0163 |
| RRIRERPPRLPRPRPRPRLSPRP | 0.134 |
| RRIRDRPPRLPRPRPRPNMWPRP | -0.152 |
| RRIRMRPPRLPRPRPRPSPKPRP | 0.593 |
| RRIRCRPPRLPRPRPRPTMSPRP | -0.139 |
| RRIRFRPPRLPRPRPRPMVCPRP | -0.0374 |
| RRIRYRPPRLPRPRPRPGAFPRP | -0.805 |
| RRIRHRPPRLPRPRPRPYYSPRP | -0.191 |
| RRIRPRPPRLPRPRPRPDFSPRP | 0.0658 |
| RRIRVRPPRLPRPRPRPLCYPRP | -0.4 |
| RRIRWRPPRLPRPRPRPMFMPRP | -0.209 |
| RRIRNRPPRLPRPRPRPKSTPRP | -0.271 |
| RRIRERPPRLPRPRPRPIPAPRP | -0.0833 |
| RRIRWRPPRLPRPRPRPKGVPRP | 0.109 |
| RRIRIRPPRLPRPRPRPERPPRP | 0.285 |
| RRIRERPPRLPRPRPRPEEVPRP | -0.00101 |
| RRIRNRPPRLPRPRPRPDIKPRP | -0.171 |
| RRIRCRPPRLPRPRPRPRWHPRP | -0.00459 |
| RRIRSRPPRLPRPRPRPDWAPRP | 0.236 |
| RRIRERPPRLPRPRPRPEQIPRP | -0.207 |
| RRIRCRPPRLPRPRPRPGDSPRP | -0.0113 |
| RRIRIRPPRLPRPRPRPKCVPRP | -0.328 |
| RRIRSRPPRLPRPRPRPMMFPRP | 0.0732 |
| RRIRTRPPRLPRPRPRPNENPRP | 1.59 |
| RRIRLRPPRLPRPRPRPPTTPRP | 0.449 |
| RRIRARPPRLPRPRPRPQSHPRP | -0.162 |
| RRIRIRPPRLPRPRPRPLMEPRP | -0.278 |
| RRIRPRPPRLPRPRPRPEYAPRP | 0.0857 |
| RRIRMRPPRLPRPRPRPLYEPRP | 0.362 |
| RRIRHRPPRLPRPRPRPFKAPRP | -0.0378 |
| RRIRTRPPRLPRPRPRPTSIPRP | -0.195 |
| RRIRHRPPRLPRPRPRPCYTPRP | 0.0618 |
| RRIRMRPPRLPRPRPRPVMAPRP | 0.266 |
| RRIRVRPPRLPRPRPRPLLMPRP | -0.325 |
| RRIRPRPPRLPRPRPRPTNPPRP | 0.174 |
| RRIRVRPPRLPRPRPRPVVGPRP | 0.126 |
